biological target: IL-17A (agonist in the IL-17RA/IL17RC dimerization assay) (UniProt Q16552 24-155); assay: cell-based or functional assay
Sequence (Q16552 24-155 limits assumed): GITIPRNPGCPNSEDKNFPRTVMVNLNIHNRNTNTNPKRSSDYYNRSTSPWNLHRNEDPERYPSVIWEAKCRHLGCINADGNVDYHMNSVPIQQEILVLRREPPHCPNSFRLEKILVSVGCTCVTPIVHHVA
readout-type: IC50 in IL-17RA/IL7RC dimerization assay

Would you please look over these solved cases?
{"binder": "Ac-VPGWGVMVTIPADLYEWIEE-NH2 [peptide of SEQ ID NO: 34]", "readout-type": "IC50 in IL-17RA/IL7RC dimerization assay", "result": "< 1 µM"}
{"binder": "Ac-IQVTIPADLWDWINK-NH2 [peptide of SEQ ID NO: 165]", "readout-type": "IC50 in IL-17RA/IL7RC dimerization assay", "result": "< 10 µM"}

What does the record list as IC50 in IL-17RA/IL7RC dimerization assay for Ac-VMVTIPADLYEWIEERRR-NH2 [peptide of SEQ ID NO: 20] ?
< 1 µM
